Reference for the values: ChEMBL document CHEMBL3734693

assay: Solubility of the compound at pH 7.4; format: physicochemical; details: buffer
Reported solubility values follow for various compounds

- CHEM SMILES: "O=C(Nc1nc2cc(CN3CCOCC3)ccc2n1[C@H]1CC[C@H](O)CC1)c1cccc([N+](=O)[O-])c1"
  VALUE COMPARATOR: "="
  solubility (µg/mL): 29
- CHEM SMILES: "O=C(Nc1nc2cc(CN3CCCC3=O)ccc2n1[C@H]1CC[C@H](O)CC1)c1cccc([N+](=O)[O-])c1"
  VALUE COMPARATOR: "="
  solubility (µg/mL): 0.8
- CHEM SMILES: "O=C(Nc1nc2cc(CN3CCCCC3)ccc2n1[C@H]1CC[C@H](O)CC1)c1cccc([N+](=O)[O-])c1"
  VALUE COMPARATOR: ">"
  solubility (µg/mL): 50
- CHEM SMILES: "O=C(Nc1nc2cc(CO)ccc2n1[C@H]1CC[C@H](O)CC1)c1cccc([N+](=O)[O-])c1"
  VALUE COMPARATOR: "="
  solubility (µg/mL): 4.9

###

Reported Papp values follow for various compounds
assay: Permeability of the compound; assay type: ADME; settings: not told; read-out: permeability

- CHEM SMILES: "O=C(Nc1nc2cc(CN3CCOCC3)ccc2n1[C@H]1CC[C@H](O)CC1)c1cccc([N+](=O)[O-])c1"
  Papp: "< 1 ×10⁻⁶ cm/s"
- CHEM SMILES: "O=C(Nc1nc2cc(CN3CCCC3=O)ccc2n1[C@H]1CC[C@H](O)CC1)c1cccc([N+](=O)[O-])c1"
  Papp: "< 1 ×10⁻⁶ cm/s"
- CHEM SMILES: "O=C(Nc1nc2cc(CN3CCCCC3)ccc2n1[C@H]1CC[C@H](O)CC1)c1cccc([N+](=O)[O-])c1"
  Papp: "6.6 ×10⁻⁶ cm/s"
- CHEM SMILES: "O=C(Nc1nc2cc(CO)ccc2n1[C@H]1CC[C@H](O)CC1)c1cccc([N+](=O)[O-])c1"
  Papp: "< 1 ×10⁻⁶ cm/s"

###

biological target: Interleukin-1 receptor-associated kinase 1 (Homo sapiens)
pIC50: −log10 of the molar value.
ASSAY ENDPOINT: pIC50

- CHEM SMILES: "CC(C)(C)C(=O)Oc1ccc2c(c1)nc(NC(=O)c1cccc([N+](=O)[O-])c1)n2-c1ccc(CCCO)cc1"
  MEAS VALUE: 6.05

###

molecular target: Interleukin-1 receptor-associated kinase 4 (Homo sapiens, UniProt Q9NWZ3); assay: Inhibition of recombinant full length IRAK-4 (unknown origin) using the biotinylated substrate RRRVTSPARRS by chemiluminescent ELISA
Sequence (Q9NWZ3 whole entry): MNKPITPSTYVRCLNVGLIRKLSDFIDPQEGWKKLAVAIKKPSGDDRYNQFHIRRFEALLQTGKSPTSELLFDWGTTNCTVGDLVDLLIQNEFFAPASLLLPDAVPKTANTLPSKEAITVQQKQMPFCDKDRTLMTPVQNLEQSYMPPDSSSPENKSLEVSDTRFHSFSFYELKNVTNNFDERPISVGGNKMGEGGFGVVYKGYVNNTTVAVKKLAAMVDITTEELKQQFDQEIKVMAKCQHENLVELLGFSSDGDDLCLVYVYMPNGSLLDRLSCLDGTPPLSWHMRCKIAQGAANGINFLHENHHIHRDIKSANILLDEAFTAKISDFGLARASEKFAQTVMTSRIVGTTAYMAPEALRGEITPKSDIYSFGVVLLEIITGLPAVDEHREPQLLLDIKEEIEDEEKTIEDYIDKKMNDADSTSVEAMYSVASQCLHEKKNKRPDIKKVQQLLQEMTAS
pIC50: −log10 of the molar value.
ASSAY ENDPOINT: pIC50

- CHEM SMILES: "CC(C)(C)C(=O)Oc1ccc2c(c1)nc(NC(=O)c1cccc([N+](=O)[O-])c1)n2-c1ccc(CCCO)cc1"
  ASSAY ENDPOINT: "pIC50"
  MEAS VALUE: 6.82

###

Reported pKi values follow for various molecules
target: Interleukin-1 receptor-associated kinase 1 (Homo sapiens, UniProt P51617)
Sequence (P51617 whole entry): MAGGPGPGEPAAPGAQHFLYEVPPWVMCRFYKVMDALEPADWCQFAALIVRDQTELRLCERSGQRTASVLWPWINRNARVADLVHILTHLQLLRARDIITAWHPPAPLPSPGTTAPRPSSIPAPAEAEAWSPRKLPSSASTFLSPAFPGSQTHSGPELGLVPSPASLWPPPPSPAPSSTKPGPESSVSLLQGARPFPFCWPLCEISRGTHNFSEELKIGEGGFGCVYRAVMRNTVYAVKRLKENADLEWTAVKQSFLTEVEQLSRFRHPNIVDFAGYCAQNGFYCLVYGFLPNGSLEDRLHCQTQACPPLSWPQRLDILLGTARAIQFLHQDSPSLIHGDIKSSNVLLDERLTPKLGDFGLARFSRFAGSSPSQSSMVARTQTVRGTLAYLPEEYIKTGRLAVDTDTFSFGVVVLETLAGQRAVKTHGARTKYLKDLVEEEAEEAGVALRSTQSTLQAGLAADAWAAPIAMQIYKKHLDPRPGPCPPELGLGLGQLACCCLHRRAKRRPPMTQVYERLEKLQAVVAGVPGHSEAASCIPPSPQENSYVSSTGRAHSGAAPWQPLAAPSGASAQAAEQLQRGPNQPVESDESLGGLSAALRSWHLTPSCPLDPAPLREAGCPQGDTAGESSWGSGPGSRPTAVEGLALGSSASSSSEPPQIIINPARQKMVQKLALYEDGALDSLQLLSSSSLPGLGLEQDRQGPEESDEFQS
pKi: −log10 of the molar value.

- CHEM SMILES: "O=C(Nc1nc2cc(CN3CCCCC3)ccc2n1[C@H]1CC[C@@H](CO)CC1)c1cccc(C(F)(F)F)c1"
  pKi: 7.14
- CHEM SMILES: "O=C(Nc1nc2cc(CN3CCCCC3)ccc2n1-c1ccccc1)c1cccc(C(F)(F)F)c1"
  pKi: 6.22
- CHEM SMILES: "O=C(Nc1nc2cc(CN3CCCCC3)ccc2n1-c1ccc(CCO)cc1)c1cccc(C(F)(F)F)c1"
  pKi: 7.92
- CHEM SMILES: "O=C(Nc1nc2cc(CN3CCCCC3)ccc2n1[C@H]1CC[C@@H](CO)CC1)c1cccc([N+](=O)[O-])c1"
  pKi: 7.32
- CHEM SMILES: "O=C(Nc1nc2cc(CN3CCCCC3)ccc2n1[C@H]1CC[C@H](O)CC1)c1cccc([N+](=O)[O-])c1"
  pKi: 7.74
- CHEM SMILES: "O=C(Nc1nc2cc(CN3CCCCC3)ccc2n1-c1ccccc1)c1cccc([N+](=O)[O-])c1"
  pKi: 6.43
